# collection of pKi values tested on UniProtKB P35372
# Sequence (P35372 whole entry): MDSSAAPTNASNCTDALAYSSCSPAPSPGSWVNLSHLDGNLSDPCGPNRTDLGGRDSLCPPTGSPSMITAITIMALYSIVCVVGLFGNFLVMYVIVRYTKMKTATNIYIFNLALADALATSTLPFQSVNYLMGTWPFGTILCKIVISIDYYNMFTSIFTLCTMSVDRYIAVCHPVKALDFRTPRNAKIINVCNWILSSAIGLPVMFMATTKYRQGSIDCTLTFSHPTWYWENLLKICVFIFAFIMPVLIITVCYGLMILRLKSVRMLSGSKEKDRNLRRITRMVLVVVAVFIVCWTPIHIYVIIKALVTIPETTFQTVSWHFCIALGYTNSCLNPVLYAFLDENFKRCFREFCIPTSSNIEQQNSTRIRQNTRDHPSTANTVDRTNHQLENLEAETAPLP
pKi: −log10 of the molar value.

>  <inputSmiles>
CN1CC[C@H]2CC(=O)[C@H](Cc3ccccc3)[C@H]3CCC[C@@H]1[C@H]23

>  <targetOrTestSystem>
UniProtKB P35372

>  <pKi>
< 5.00

$$$$
>  <inputSmiles>
CCCN1CC[C@H]2CC(=O)[C@H](CC)[C@H]3CCC[C@@H]1[C@H]23

>  <targetOrTestSystem>
UniProtKB P35372

>  <pKi>
< 5.00

$$$$
>  <inputSmiles>
CCCN1CC[C@H]2CC(=O)[C@H](Cc3ccc(OC)cc3)[C@H]3CCC[C@@H]1[C@H]23

>  <targetOrTestSystem>
UniProtKB P35372

>  <pKi>
< 5.00

$$$$
>  <inputSmiles>
CCCN1CC[C@H]2c3cc4cc(Cl)ccc4nc3[C@H](CC)[C@H]3CCC[C@@H]1[C@@H]32

>  <targetOrTestSystem>
UniProtKB P35372

>  <pKi>
< 5.00

$$$$
>  <inputSmiles>
CC[C@H]1C(=O)C[C@@H]2CCN(Cc3nccs3)[C@@H]3CCC[C@H]1[C@@H]23

>  <targetOrTestSystem>
UniProtKB P35372

>  <pKi>
< 5.00

$$$$
>  <inputSmiles>
CCCN1CC[C@H]2CC3=Nc4ccccc4[C@]3(CC)[C@H]3CCC[C@@H]1[C@H]23

>  <targetOrTestSystem>
UniProtKB P35372

>  <pKi>
< 5.00

$$$$
>  <inputSmiles>
CCCCCCCN1CC[C@H]2CC(=O)[C@H](CC)[C@H]3CCC[C@@H]1[C@H]23

>  <targetOrTestSystem>
UniProtKB P35372

>  <pKi>
6.20

$$$$
>  <inputSmiles>
CC[C@H]1C(=O)C[C@@H]2CCN(CCC(C)C)[C@@H]3CCC[C@H]1[C@@H]23

>  <targetOrTestSystem>
UniProtKB P35372

>  <pKi>
< 5.00

$$$$
>  <inputSmiles>
CCCN1CC[C@H]2c3cc4ccc(C(F)(F)F)cc4nc3[C@H](CC)[C@H]3CCC[C@@H]1[C@@H]32

>  <targetOrTestSystem>
UniProtKB P35372

>  <pKi>
5.63

$$$$
>  <inputSmiles>
CC(C)CCN1CC[C@H]2CC(=O)[C@H](Cc3ccccc3)[C@H]3CCC[C@@H]1[C@H]23

>  <targetOrTestSystem>
UniProtKB P35372

>  <pKi>
< 5.00

$$$$
>  <inputSmiles>
CC[C@H]1c2nc3ccccc3cc2[C@@H]2CCN(C)[C@@H]3CCC[C@H]1[C@H]32

>  <targetOrTestSystem>
UniProtKB P35372

>  <pKi>
< 5.00

$$$$
>  <inputSmiles>
CCCN1CC[C@@H]2CC(=O)C[C@H]3CCC[C@H]1[C@H]32

>  <targetOrTestSystem>
UniProtKB P35372

>  <pKi>
< 5.00

$$$$
>  <inputSmiles>
COc1ccc(C[C@H]2C(=O)C[C@@H]3CCN(CC4CCCCC4)[C@@H]4CCC[C@H]2[C@@H]34)cc1

>  <targetOrTestSystem>
UniProtKB P35372

>  <pKi>
< 5.00

$$$$
>  <inputSmiles>
CC[C@H]1C(=O)C[C@@H]2CCN(S(=O)(=O)c3ccc(C)cc3)[C@@H]3CCC[C@H]1[C@@H]23

>  <targetOrTestSystem>
UniProtKB P35372

>  <pKi>
< 5.00

$$$$
